system-tested: EI^Ntr (Escherichia coli)
Sequence (P37177 1-748): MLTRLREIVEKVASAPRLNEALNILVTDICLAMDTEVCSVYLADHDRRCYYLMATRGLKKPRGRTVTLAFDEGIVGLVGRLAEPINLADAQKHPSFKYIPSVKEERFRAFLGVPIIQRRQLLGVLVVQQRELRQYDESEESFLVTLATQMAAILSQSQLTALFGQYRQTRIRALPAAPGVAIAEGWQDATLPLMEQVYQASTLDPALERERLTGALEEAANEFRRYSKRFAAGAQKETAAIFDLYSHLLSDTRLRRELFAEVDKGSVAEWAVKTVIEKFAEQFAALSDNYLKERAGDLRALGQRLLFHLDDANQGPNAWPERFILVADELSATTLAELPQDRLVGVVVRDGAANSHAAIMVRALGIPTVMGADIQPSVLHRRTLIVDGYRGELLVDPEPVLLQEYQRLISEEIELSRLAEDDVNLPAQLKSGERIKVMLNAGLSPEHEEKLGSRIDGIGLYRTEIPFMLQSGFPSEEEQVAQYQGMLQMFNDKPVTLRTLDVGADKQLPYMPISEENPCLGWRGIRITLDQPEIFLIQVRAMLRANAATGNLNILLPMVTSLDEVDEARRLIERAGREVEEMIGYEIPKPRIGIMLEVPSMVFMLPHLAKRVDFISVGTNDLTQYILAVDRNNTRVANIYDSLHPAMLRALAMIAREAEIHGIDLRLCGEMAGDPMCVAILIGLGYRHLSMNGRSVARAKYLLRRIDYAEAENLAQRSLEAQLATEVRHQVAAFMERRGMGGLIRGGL
Kd overview

{"compound": "NC(=O)CC[C@H](N)C(=O)O", "Kd, mM": 0.7}
{"compound": "O=C(O)CCC(=O)C(=O)O [α-ketoglutarate]", "Kd, mM": 3.3}
